Numbers sourced from patent US20240360109A1.

assay: Pharmacokinetic assay of SD rats; type: in vivo; conditions: Sprague-Dawley, rat, po; male SD rats, plasma, dose 50 mg/kg (b1219 prints 5 mg/kg)
MEASURED_ATTRIBUTE: Tmax (h)

# count of solved cases: 3
> print(dat)
                                   compound  recorded.measurement
1  O=C(O)c1ccc2nc(CN3CCC(c4cccc5c4O[C@@H](c4ccc(Cl)cc4F)C=C5F)CC3)n(C[C@@H]3CCO3)c2n1 [Example 2-A]                     2
2  O=C(O)c1ccc2nc(CN3CCC(c4cccc5c4O[C@@H](c4ccc(Cl)cc4F)C=C5)CC3)n(C[C@@H]3CCO3)c2n1 [Example 48]                     2
3  [2H][C@]1(c2ccc(Cl)cc2F)C=C(F)c2cccc(C3CCN(Cc4nc5ccc(C(=O)O)nc5n4C[C@@H]4CCO4)CC3)c2O1 [Example 40]                     1

P: O=C(O)c1ccc2nc(CN3CCC(c4cccc5c4O[C@@H](c4ccc(Cl)cc4F)C=C5)CC3)n(C[C@@H]3CCO3)c2c1 [Example 53]
Q: N#Cc1ccc([C@H]2C=Cc3cccc(C4CCN(Cc5nc6ccc(C(=O)O)cc6n5C[C@@H]5CCO5)CC4)c3O2)c(F)c1 [Example 52]
Enquiry: # query: argmin of Tmax over P and Q Reply with the label of the item you choose.
Return: P
(P: 0.5 h, Q: 1 h)

###

experiment: Pharmacokinetic assay of SD rats; format: in vivo; settings: Sprague-Dawley, rat, po; male SD rats, plasma, dose 50 mg/kg (b1219 prints 5 mg/kg)
MEASURED_ATTRIBUTE: Cmax (ng/mL)

# count of solved cases: 3
> print(dat)
                                   compound  measured.attribute  recorded.measurement
1  N#Cc1ccc([C@H]2C=Cc3cccc(C4CCN(Cc5nc6ccc(C(=O)O)cc6n5C[C@@H]5CCO5)CC4)c3O2)c(F)c1 [Example 52]                Cmax                  9400
2  O=C(O)c1ccc2nc(CN3CCC(c4cccc5c4O[C@@H](c4ccc(Cl)cc4F)C=C5F)CC3)n(C[C@@H]3CCO3)c2n1 [Example 2-A]                Cmax                  7160
3  O=C(O)c1ccc2nc(CN3CCC(c4cccc5c4O[C@@H](c4ccc(Cl)cc4F)C=C5)CC3)n(C[C@@H]3CCO3)c2n1 [Example 48]                Cmax                  6400

a: O=C(O)c1ccc2nc(CN3CCC(c4cccc5c4O[C@@H](c4ccc(Cl)cc4F)C=C5)CC3)n(C[C@@H]3CCO3)c2c1 [Example 53]
b: [2H][C@]1(c2ccc(Cl)cc2F)C=C(F)c2cccc(C3CCN(Cc4nc5ccc(C(=O)O)nc5n4C[C@@H]4CCO4)CC3)c2O1 [Example 40]
Enquiry: # query: argmin of Cmax over a and b Reply with the label of the item you choose.
Return: b
